Tested on: HT29 colon
Assay: NCI-60 one-dose screen, 48 h (100 = growth as untreated, 0 = no growth, -100 = all killed)
Conditions: 10 µM unless noted
Experimental: Growth inhibition of the HT29 human tumor cell line is measured as a screen for anti-cancer activity. Cells are grown in 96 well plates and exposed to the test compound for 48 hours. Compounds are tested at a single concentration, which is 10^-5 M for most compounds. The reported endpoint is percent growth (GI% or GIPRCNT), where numbers from 0 - 100% represent growth inhibition, and numbers from -100% - 0 represent cell death. For example, a value of 40 represents 60% growth inhibition. […]
The panel holds about 83,000 compounds, 20% with a hit somewhere; the sample as a whole holds those more often.
Reported growth is given for each of the following molecules.
REPORTED ENDPOINT: growth (%)

1. COC1=CC(c2ccc[nH]2)=N/C1=C\c1[nH]c(C)c(CC(=O)NCc2ccccc2)c1C	15.1
2. Cc1cc(C)c2c(c1)N(C)c1ncnc(-n3cnc4cc(C)ccc43)c1CC2C (configuration not stated)	0.933
3. Nc1[nH]n2cc(-c3ccccc3)nc2c1N=Nc1ccc(S(N)(=O)=O)cc1	38.8
4. COC1/C=C/OC2(C)Oc3c(C)c(O)c4c(O)c(c(/C=N/Nc5ccc([N+](=O)[O-])cc5[N+](=O)[O-])c(O)c4c3C2=O)NC(=O)C(C)=C/C=C/C(C)C(O)C(C)C(O)C(C)C(OC(C)=O)C1C (configuration not stated)	-37.2
5. CC(C)Cn1cnc2c(=O)[nH]c(N)nc21	79.2
6. CCC1=C[C@@H]2C[C@]3(C(=O)OC)c4[nH]c5ccccc5c4CC[N@+](CC(=O)Nc4cc5c(cc4OC)N(C)[C@H]4[C@@](O)(C(=O)OC)[C@H](OC(C)=O)[C@]6(CC)C=CCN7CC[C@]54[C@@H]76)(C2)[C@H]13	109
7. COC(=O)CC[C@@H]1O[C@@H](c2cccc(C(F)(F)F)c2)[C@@H](O)[C@H]1O	97.8
8. O=c1[nH]c(Cc2nc3ccccc3s2)nc2cc(Br)ccc12	43.7
9. O=C(NCc1ccc(Cl)cc1Cl)C1CCC(=O)N1c1cccs1 (configuration not stated)	89.9
10. CCOC(=O)C/C(=N\Nc1cc(=O)[nH]c2ccc(Br)cc12)C(=O)OCC	107
11. C[PH+](c1nc2ccccc2nc1[PH+](C)C(C)(C)C)C(C)(C)C.C[PH+](c1nc2ccccc2nc1[PH+](C)C(C)(C)C)C(C)(C)C.[Au+].[Cl-] (configuration not stated)	-100
12. O=C1/C(=C/c2cccc(F)c2)CN(C(=O)C(Cl)Cl)C/C1=C\c1cccc(F)c1	1.62
13. CC1CCN(CCOc2ccc(CNc3ccc4nc(CCC5CCCCC5)[nH]c4c3)cc2)CC1	10
14. CCOC(=O)C1=C(N)Oc2c(sc3c(F)cccc23)C1c1ccc(O)cc1 (configuration not stated)	30.7
15. CCCn1cc2c(=O)nc3sc(Cc4ccccc4)c(C)n3c2n1	98
16. O=C(c1nn(-c2ccccc2)c2c1CC(NCc1ccc(F)cc1)CC2)N1CCCCC1 (configuration not stated)	101
17. CSc1nnc(-c2cc3c([nH]c4ccccc43)c(-c3cccc(O)c3)n2)n1-c1ccccc1	41.3

----------
Test system: MOLT-4 leukemia
Assay: NCI-60 one-dose screen, 48 h (100 = growth as untreated, 0 = no growth, -100 = all killed)
Settings: 10 µM unless noted
About 83,000 compounds went through this panel and 20% of them were active in at least one assay; those are over-represented in the sample as a whole.
growth below 60% gives not fulfilled; growth at or above it gives fulfilled.

1) CC(C)c1ccc(C(=O)Nc2nc3ccc(O)c(CN(C)C)c3s2)cc1	fulfilled
2) N#CC1=C(N)Oc2c(c(=O)[nH]c3ccc(Cl)cc23)C12C(=O)c1ccccc1C2=O	fulfilled
3) Clc1cc(Cl)c(Cl)c(-c2nnc(SCc3ccncc3Br)o2)c1	fulfilled
4) CCOc1ccc(NC(=O)CSc2oc(-c3ccccc3)nc2S(=O)(=O)c2ccc(C)cc2)cc1	fulfilled
5) Nc1c(C(=O)Nc2ccncc2)sc2nc3c(cc12)C(O)CCC3 (centres undefined)	fulfilled
6) O=[N+]([O-])c1cccc(-c2nc3cc4nc5ccccc5[nH]c4cc3n2)c1	fulfilled
7) O=C(CSc1oc(-c2ccccc2)nc1S(=O)(=O)c1ccccc1)Nc1ccc(F)cc1	fulfilled
8) Cn1cc(-c2ccc3nc(-c4ccc(CC(=O)ONc5cc(C(C)(C)C)on5)cc4)cnc3c2)cn1	not fulfilled
9) c1ccc([P+](c2ccccc2)(c2ccccc2)c2ccc3c4ccc([P+](c5ccccc5)(c5ccccc5)c5ccccc5)c5cccc(c6cccc2c63)c54)cc1	not fulfilled
10) COc1cc2nc3cc([N+](=O)[O-])ccc3c(NCCNCC(C)O)c2cc1OC (centres undefined)	not fulfilled
11) CCOC(=O)c1ccc2c(c1)nc(-c1ccccc1)n2C1CCCCC1	fulfilled
12) c1ccc(Cn2cc3c(c2)-c2oncc2CC3)cc1	not fulfilled
13) C=C1C(=O)O[C@H]2[C@H]1CC/C(COC(=O)NCc1ccc(Cn3c(=O)sn(CCCCC)c3=O)cc1)=C\CC[C@@]1(C)O[C@@H]21	not fulfilled
14) COc1c(C(=O)Nc2ccc(C)c(Br)c2)ccc2ccccc12	fulfilled
15) Oc1ccc(Cl)cc1/C=N\NC(=S)N/N=C/c1cc(Cl)ccc1O	not fulfilled
16) COC(=O)/C=C1/SC(=Nc2cccc(OC)c2)N(CCc2c[nH]c3ccc(O)cc23)C1=O	not fulfilled
17) COc1cc2c(cc1OCCCN1CCN(CCCOc3cc4c(cc3OC)C(=O)N3CC(F)(F)C[C@H]3C=N4)CC1)N=C[C@@H]1CC(F)(F)CN1C2=O	not fulfilled
18) CC1=NC2=Nn3c(c4cnn(-c5ccccc5)c4n/c3=N\N)NN2C(c2ccccc2)=C1	fulfilled
19) COc1ccc(C/C(C)=C(/c2ccc(OCCN(C)C)cc2)c2ccc(OC(=O)NCc3ccccc3)cc2)cc1	not fulfilled

----------
System: COLO 205 colon
Assay: NCI-60 one-dose screen, 48 h
Conditions: 10 µM unless noted
Compounds without any hit were thinned out: in the full panel of roughly 83,000, 20% have a hit. The source made the active and inactive calls. How the source made its calls: active means growth percent below 10; inactive means the rest.
Classes used: active, inactive

1. COc1ccc(\C=N/N=C(N)/C(N)=N\N=C/c2ccc(OC)cc2)cc1	inactive
2. OCCn1cc(-c2nc(-c3c[nH]c4ncccc34)cs2)c2ccccc21	inactive
3. C=C1CC[C@@H]2[C@](C)(COC(C)=O)[C@H](OC(C)=O)CC[C@@]2(C)[C@@H]1CC(Nc1ccc(S(=O)(=O)Nc2ncccn2)cc1)C1=CCOC1=O (some centres not stated)	active
4. CCC(C)(C)C(=O)O[C@H]1C[C@@H](C)C=C2C=C[C@H](C)[C@H](CC[C@@H]3CC(SCCN)CC(=O)O3)[C@H]21 (some centres not stated)	inactive
5. Cc1[nH]c(C(=O)Nc2ccc(C(=O)N3CCN(c4cc5c(cc4F)c(=O)c(C(=O)O)cn5C4CC4)CC3)cc2OC(C)C)c(Cl)c1Cl	inactive
6. CN(C)CCNC(=O)c1cc2c3cc(Cl)ccc3[nH]c2c2ncccc12	active
7. N#CC1=C(N)Oc2c(sc3c(Br)cccc23)C1c1ccc(Cl)cc1 (configuration not stated)	active
8. COC(=O)c1c2c(c(C)[n+]([O-])c1C)C(=O)C(NCc1cccc(OC)c1)=CC2=O	active
9. O=S(=O)(NCCCNc1nccc(-c2c(-c3ccc(F)c(O)c3)nc3occn23)n1)c1ccc(Cl)cc1	inactive
10. O=C(/C=C/c1cccc(Cl)c1)c1cccc(OCCCOc2cccc(C(=O)/C=C/c3cccc(Cl)c3)c2)c1	inactive
11. COc1ccc(/C=N/C2=C(C#N)C(c3ccccc3)c3ccc4ccccc4c3O2)cc1 (configuration not stated)	active
12. CCN(CC)S(=O)(=O)c1ccc(S(=O)(=O)N2CCC[C@@H](C(=O)N3CCN(c4nc(C(C)C)no4)CC3)C2)cc1	inactive
13. Clc1ccc2c(c1)C(c1c[nH]c3ccccc13)(c1c[nH]c3ccccc13)CCO2	inactive
14. CC(=O)Oc1ccc(C)cc1C	inactive
15. C#Cc1c2c(c(OC)c3c1OCO3)[C@H]([C@H]1OC(=O)c3c1ccc(OC)c3OC)N(C)CC2	inactive
16. O=C1C(Cl)=C(Nc2ccc(S(=O)(=O)N3CCOCC3)cc2)C(=O)c2ccccc21	inactive
17. CCc1ccccc1-n1c(-c2ccc(OC)cc2)cc(-c2ccc(OC)cc2)c(C#N)c1=O	inactive
18. O=C(O)c1cn(C2CC2)c2cc(N3CCN(C(=O)N(c4ccccc4)c4nc(-c5ccccc5)cs4)CC3)c(F)cc2c1=O	active
19. O=[N+]([O-])c1ccc(O)cc1Br	inactive
20. O=C(Nc1nc2ccccc2s1)c1ccc(F)cc1	inactive
21. CC/C=C\C[C@H](O)C/C=C1/C(=O)C=C[C@@H]1C/C=C\CCCC(=O)N(C)C	active
22. CCN(CC)CC(O)COc1c(Br)c(Br)c(Br)c2c1OC(C)(C)C2 (configuration not stated)	inactive
23. CCn1cc(C(=O)NNC(=S)Nc2ccc(C)cc2)c(=O)c2ccc(C)nc21	inactive
24. COc1ccc(C2=C(Nc3ccc(C(=O)Nc4ccccc4)cc3)C(=O)N(C)C2=O)cc1	inactive
25. CS(=O)(=O)Nc1cc(-c2ccc3ncnc(Nc4ccc5c(cnn5Cc5cccc(F)c5)c4)c3c2)cnc1Cl	active
26. C=C1C(=O)O[C@H]2[C@H]1CC/C(COC(=O)c1cc3ccccc3s1)=C\CC[C@@]1(C)O[C@@H]21	active
27. COc1ccc(Nc2ncc(Br)c(NCCCNC(=O)c3cccs3)n2)cc1	inactive
28. O=c1c2cccc3c(N4CCCC4)ccc(c32)c2nc3ccccc3n12	inactive
29. CC1CCN(CCOc2ccc(CNc3ccc4nc(CCC5CCCCC5)[nH]c4c3)cc2)CC1	active
30. CC(C)=CC(=O)OCC(=O)O[C@@H]1C[C@]2(C(C)C)O[C@@]1(C)[C@@H]1CC[C@@H](C)[C@H]1[C@@H]2OC(=O)/C=C/c1ccccc1	inactive
31. COc1ccc(Cc2cnc(NC(=O)c3cc(C)oc3C)s2)cc1	inactive
32. CCOC(=O)c1c(NC(=O)c2ccc(Cl)cc2)sc2c(CN(C)C)c(O)ccc12	active
33. Clc1ccc(/C=N\N=C\c2ccc(Cl)c(Cl)c2)cc1Cl	inactive
34. CC(=O)N1N=C(c2ccc(C(F)(F)F)c(F)c2)CC1c1[nH]c(C)c(C(=O)NCC(F)(F)F)c1C (configuration not stated)	inactive
35. COC(=O)c1cc(N=C2NC(=O)/C(=C/C=C/c3ccccc3)S2)ccc1O	active
36. CCOC(=O)c1cc(C(=O)c2cc(OC)c(OC)c(OC)c2)n2ncccc12	active
37. O=C(/C=C/c1ccco1)Nc1ncc(Cc2cccc(C(F)(F)F)c2)s1	active
